biological target: GOPC, Q9HD26; assay: holdup assay; set-up: key: below the threshold = too weak to quantify, mostly under pKd 3.1 to 4; conditions: plain residues with an end cap or a label only (N-terminal biotin on a linker: ado-ado)
assay_endpoint: pKd

Record excerpt, results attached:
binder	pKd
PDGQCTVTEV [RNF146, Q9NTX7]	4.04
KSGKQTMLVV [TRIM29, Q14134;Q14134-2]	below the threshold
SAKVRTVTSV [RASL11B, Q9BPW5]	4.07
TSSMRGMDAV [RSRC2, Q7L4I2]	below the threshold
LKVPPEERLI [CRB2, Q5IJ48]	below the threshold

Item under review: KKAPTNEFYA [SDC4, P31431] . Reported pKd?
below the threshold

Same question for RRISSLESEV [GRIN2C, Q14957] please.
below the threshold

# repeat for MLSKQSESAI [FLVCR1, Q9Y5Y0]
below the threshold

Now consider EKKTLIGIKL [GOT1L1, Q8NHS2] and answer again.
below the threshold

What would you report for QGLAERISVL [PRKD2, Q9BZL6] ?
3.98

Do the same for GSGAVEMESV [AQP6, Q13520] please
below the threshold

Then this binder: SKSNFGSEPL [KIF17, Q9P2E2]
below the threshold

Same lookup for QHKTQLQTLI [BPIFA2, Q96DR5] , please.
4.01

Now the binder ETQVTAETVI [TMEM225B, P0DP42]
below the threshold

Another binder: YLEPVLSSEL [ATP2A2, P16615;P16615-3]
below the threshold

Same again, this time with LRSPRTPSEV [OR10G3, Q8NGC4]
below the threshold

FYI, the data here is from paper PMC9482650.
